- system: Muscarinic acetylcholine receptor M3 (Homo sapiens)
- procedure-summary: NVS_GPCR_hM3: NovaScreen (NVS) G Protein-Coupled Receptor Assay for human Muscarinic, M3 Receptor (AID 2283272)
Results filed as inconclusive are left out. Calls of active or inactive are those of the source. The calls were made as follows: active = hit-call score of the fitted dose curve at least 0.9, where 1 is the maximum; inconclusive = response in the unintended direction; inactive = score below 0.9.
Outcomes you can answer with include only these: active, inactive

Study these solved cases before continuing.
> print(dat)
                                   molecule                                    system  assigned.class
1                      Nc1ccc(Nc2ccccc2)cc1  Muscarinic acetylcholine receptor M3 (Homo sapiens)          active
2  CCCN(C1CCN(C(=O)C2CCNCC2)CC1)[C@@H]1CCc2ccc(OC)cc2C1  Muscarinic acetylcholine receptor M3 (Homo sapiens)          active

Ask: Assay result, entry CCOC(=O)c1ccc(C2CCC(NC[C@H](O)COc3ccc(O)c(NS(C)(=O)=O)c3)CC2)cc1 (some centres not stated) — outcome?
Result: active

Ask: Call for entry CCN(C(=O)c1cc(C)cc(OC[C@H](C)Nc2ccncc2)c1)C(C)C :
Result: active

Ask: Which outcome was entered for the molecule CCOC(=O)COc1ccc2c(c1)CC(NCC(O)c1cccc(Cl)c1)CC2 (configuration not stated) in this test?
Result: active

Ask: Fill in: this test's call for Cc1[nH]cnc1C[C@H]1CCc2c(C)c3ccccc3n2C1=O is ___
Result: active

Ask: Call for entry O=C(CCCCCCCCc1cccnc1)N1CCC(C=C(c2ccccc2)c2ccccc2)CC1 :
Result: inactive

* * *

- Read-out: TIMP metallopeptidase inhibitor 2 (TIMP2), TIMP2 (gene 7077)
- procedure-summary: BSK_KF3CT_TIMP2: BioMAP Diversity Plus: KF3CT Assay for TIMP metallopeptidase inhibitor 2 (TIMP2) Biomarker Activity (AID 2283071)
- particulars: primary human keratinocytes with fibroblasts; actives raise or lower the signal
Active and inactive are the calls of the source. Rule for the calls: active = hit-call score of the fitted dose curve at least 0.9, where 1 is the maximum; inactive = score below 0.9.
Mark one answer only. Choices: TRUE (active), FALSE (inactive)

Ask: Hi team, can someone confirm the assay call for NC(=O)NO ?
Result: FALSE

Ask: What classification did CC(C)c1cccc(C(C)C)c1N1C(=O)c2ccc(O)cc2C1=O end up with in this test?
Result: TRUE

Ask: Query: recorded result category for CCOC(=O)CC(CC(=O)OCC)(OC(C)=O)C(=O)OCC in this test
Result: FALSE

Ask: Can you look up the reported call for CCCCCCc1ccc(O)cc1O for me?
Result: TRUE

Ask: Per the records of this test, what outcome belongs to CC(C)=CCCC(C)CCO (stereo not drawn) ?
Result: FALSE

Ask: Hey, what did the test say about CCCCC(CC)COC(=O)c1ccc(C(=O)OCC(CC)CCCC)cc1 (stereo not drawn) ?
Result: FALSE

* * *

- Read-out: Cyclin Dependent Kinase Inhibitor 1A (CDKN1A), CDKN1A (gene 1026)
- procedure-summary: LTEA_HepaRG_CDKN1A: Life Technologies and Expression Analysis (LTEA) Assay for Cyclin Dependent Kinase Inhibitor 1A (CDKN1A) using HepaRG (AID 2283450)
- particulars: mRNA level, 48 h; actives raise or lower the signal
The source made the active and inactive calls. Rule for the calls: active = hit-call score of the fitted dose curve at least 0.9, where 1 is the maximum; inactive = score below 0.9.
The categories you may choose from are class 1 = active, class 0 = inactive

Check out these entries, answers already filled in.
smiles-notation	assigned-class
O=C(OC[C@H]1O[C@@H](OC(=O)c2cc(O)c(O)c(OC(=O)c3cc(O)c(O)c(O)c3)c2)[C@H](OC(=O)c2cc(O)c(O)c(OC(=O)c3cc(O)c(O)c(O)c3)c2)[C@@H](OC(=O)c2cc(O)c(O)c(OC(=O)c3cc(O)c(O)c(O)c3)c2)[C@@H]1OC(=O)c1cc(O)c(O)c(OC(=O)c2cc(O)c(O)c(O)c2)c1)c1cc(O)c(O)c(OC(=O)c2cc(O)c(O)c(O)c2)c1	class 0
CC(=O)c1ccc2c(c1)[C@H](NC(=O)c1ccc(F)cc1)[C@@H](O)C(C)(C)O2	class 0
CCOc1cccc(-n2cc(C(=O)N3CCN(c4cc(C(=O)O)c5ccccc5c4)CC3)nc2-c2ccc(C)cc2)c1	class 0
Nc1nc2ncc(CNc3ccc(C(=O)N[C@@H](CCC(=O)O)C(=O)O)cc3)nc2c(=O)[nH]1	class 0
O=C(CCCCCCCCc1cccnc1)N1CCC(C=C(c2ccccc2)c2ccccc2)CC1	class 1
COc1cccc(-c2ccc(/C=C\CN3CCCCCC3)cc2Cl)c1	class 0

Lab note: next compound to report on.
Ask: Assay result, entry CC(C)(O)c1coc(S(=O)(=O)NC(=O)Nc2c3c(cc4c2CCC4)CCC3)c1 — outcome?
Result: class 0
